Target: Epidermal growth factor receptor (Homo sapiens, UniProt P00533, L858R)
Sequence (P00533 25-1210 L858R limits assumed): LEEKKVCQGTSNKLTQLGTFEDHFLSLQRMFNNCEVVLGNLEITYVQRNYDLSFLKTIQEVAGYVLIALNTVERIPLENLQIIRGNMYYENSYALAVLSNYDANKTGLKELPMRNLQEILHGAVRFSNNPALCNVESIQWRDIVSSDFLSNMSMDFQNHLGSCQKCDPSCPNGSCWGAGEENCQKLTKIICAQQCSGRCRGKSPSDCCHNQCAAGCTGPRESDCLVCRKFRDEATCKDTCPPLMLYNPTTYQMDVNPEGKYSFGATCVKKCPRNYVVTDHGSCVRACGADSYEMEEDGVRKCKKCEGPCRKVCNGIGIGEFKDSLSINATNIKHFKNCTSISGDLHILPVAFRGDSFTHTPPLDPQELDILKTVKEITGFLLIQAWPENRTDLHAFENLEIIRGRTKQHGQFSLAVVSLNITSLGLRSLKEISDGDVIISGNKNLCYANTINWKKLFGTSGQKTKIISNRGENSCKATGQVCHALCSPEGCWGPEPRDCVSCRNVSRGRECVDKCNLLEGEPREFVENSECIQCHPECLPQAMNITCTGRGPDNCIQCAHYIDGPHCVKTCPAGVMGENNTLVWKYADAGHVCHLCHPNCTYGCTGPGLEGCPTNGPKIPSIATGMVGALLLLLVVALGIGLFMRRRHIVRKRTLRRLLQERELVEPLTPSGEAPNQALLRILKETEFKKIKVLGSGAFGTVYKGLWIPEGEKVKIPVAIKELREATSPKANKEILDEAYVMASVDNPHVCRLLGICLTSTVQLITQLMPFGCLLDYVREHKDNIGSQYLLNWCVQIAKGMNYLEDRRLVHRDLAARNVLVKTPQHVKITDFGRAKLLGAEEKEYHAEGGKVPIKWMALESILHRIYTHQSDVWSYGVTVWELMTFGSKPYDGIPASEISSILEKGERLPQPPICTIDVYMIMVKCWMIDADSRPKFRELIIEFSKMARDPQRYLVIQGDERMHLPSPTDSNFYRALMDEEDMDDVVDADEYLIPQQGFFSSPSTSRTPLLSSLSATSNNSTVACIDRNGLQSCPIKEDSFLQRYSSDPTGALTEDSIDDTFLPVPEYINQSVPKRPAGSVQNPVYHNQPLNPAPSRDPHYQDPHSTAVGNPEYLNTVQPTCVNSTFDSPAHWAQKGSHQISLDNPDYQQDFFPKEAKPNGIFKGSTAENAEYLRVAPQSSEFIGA
Assay: Inhibition of EGFR L858R mutant (unknown origin) using Tyr 4 peptide as substrate after 1.5 hrs by FRET based Z'-lyte assay
measured_property: IC50 (nM)

Completed entries (count: 2):
1) COc1cc(N2CCN(C)CC2)ccc1Nc1ncc(Cl)c(Oc2ccc(COc3no[n+]([O-])c3S(=O)(=O)c3ccccc3)cc2)n1 | 1530
2) COc1cc(N2CCC(O)CC2)ccc1Nc1ncc(Cl)c(Oc2cccc(COc3no[n+]([O-])c3S(=O)(=O)c3ccccc3)c2)n1 | 490

A = COc1cc(N2CCC(O)CC2)ccc1Nc1ncc(Cl)c(Oc2ccc(COc3no[n+]([O-])c3S(=O)(=O)c3ccccc3)cc2)n1
B = COc1cc(N2CCN(C)CC2)ccc1Nc1ncc(Cl)c(Oc2ccc(CCOc3no[n+]([O-])c3S(=O)(=O)c3ccccc3)cc2)n1
INPUT: I'd appreciate it if you could identify which of A and B has the greater IC50. Respond using the label that marks the chosen record.
OUTPUT: B

###

Molecular target: Epidermal growth factor receptor (Homo sapiens, UniProt P00533, L858R/T790M)
Sequence (P00533 25-1210 T790M/L858R limits assumed): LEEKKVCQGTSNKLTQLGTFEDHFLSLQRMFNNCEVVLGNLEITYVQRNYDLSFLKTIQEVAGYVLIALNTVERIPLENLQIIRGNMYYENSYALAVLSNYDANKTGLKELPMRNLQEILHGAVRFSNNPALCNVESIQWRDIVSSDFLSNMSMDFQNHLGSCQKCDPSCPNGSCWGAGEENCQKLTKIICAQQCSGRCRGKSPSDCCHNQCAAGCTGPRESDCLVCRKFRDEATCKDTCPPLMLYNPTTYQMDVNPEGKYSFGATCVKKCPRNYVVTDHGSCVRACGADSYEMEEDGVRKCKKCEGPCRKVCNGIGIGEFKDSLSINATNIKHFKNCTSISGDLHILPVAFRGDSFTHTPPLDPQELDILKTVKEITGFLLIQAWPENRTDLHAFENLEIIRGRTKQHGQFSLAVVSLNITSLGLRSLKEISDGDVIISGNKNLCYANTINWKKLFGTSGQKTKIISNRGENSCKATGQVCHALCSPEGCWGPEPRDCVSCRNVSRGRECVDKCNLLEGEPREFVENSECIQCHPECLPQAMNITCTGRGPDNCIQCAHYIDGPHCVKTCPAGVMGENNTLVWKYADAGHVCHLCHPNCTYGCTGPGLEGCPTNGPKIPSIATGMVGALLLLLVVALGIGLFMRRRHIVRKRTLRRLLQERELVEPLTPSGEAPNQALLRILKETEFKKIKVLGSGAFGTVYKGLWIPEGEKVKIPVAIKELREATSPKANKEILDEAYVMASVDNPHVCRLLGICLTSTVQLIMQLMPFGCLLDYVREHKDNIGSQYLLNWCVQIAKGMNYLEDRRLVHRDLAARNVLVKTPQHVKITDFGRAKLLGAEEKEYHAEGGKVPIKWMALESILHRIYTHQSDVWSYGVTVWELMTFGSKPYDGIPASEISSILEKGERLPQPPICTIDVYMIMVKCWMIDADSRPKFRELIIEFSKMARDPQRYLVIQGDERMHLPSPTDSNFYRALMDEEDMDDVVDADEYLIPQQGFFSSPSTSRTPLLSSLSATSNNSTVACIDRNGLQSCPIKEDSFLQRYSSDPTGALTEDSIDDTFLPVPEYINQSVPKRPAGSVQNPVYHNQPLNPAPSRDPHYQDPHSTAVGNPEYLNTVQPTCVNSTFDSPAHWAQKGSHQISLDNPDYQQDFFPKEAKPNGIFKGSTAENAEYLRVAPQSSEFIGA
Assay: Inhibition of EGFR L858R/T790M mutant (unknown origin) using Tyr 4 peptide as substrate after 1.5 hrs by FRET based Z'-lyte assay
Format: protein assay
pIC50: −log10 of the molar value.
measured_property: pIC50

Completed entries (count: 6):
1) COc1cc(N2CCC(O)CC2)ccc1Nc1ncc(Cl)c(Oc2ccc(COc3no[n+]([O-])c3S(=O)(=O)c3ccccc3)cc2)n1 | 6.60
2) C=CC(=O)N1CCN(c2ccc(Nc3ncc(Cl)c(Oc4cccc(COc5no[n+]([O-])c5S(=O)(=O)c5ccccc5)c4)n3)c(OC)c2)CC1 | 7.35
3) COc1cc(N2CCN(C)CC2)ccc1Nc1ncc(Cl)c(Oc2ccc(CCOc3no[n+]([O-])c3S(=O)(=O)c3ccccc3)cc2)n1 | 6.02
4) COc1cc(N2CCN(C)CC2)ccc1Nc1ncc(Cl)c(Oc2ccc(CCCOc3no[n+]([O-])c3S(=O)(=O)c3ccccc3)cc2)n1 | 6.11
5) COc1cc(N2CCN(C)CC2)ccc1Nc1ncc(Cl)c(Oc2cccc(COc3no[n+]([O-])c3S(=O)(=O)c3ccccc3)c2)n1 | 7.72
6) COc1cc(N2CCC(O)CC2)ccc1Nc1ncc(Cl)c(Oc2cccc(COc3no[n+]([O-])c3S(=O)(=O)c3ccccc3)c2)n1 | 7.17

P = C=CC(=O)N1CCN(c2ccc(Nc3ncc(Cl)c(Oc4ccc(COc5no[n+]([O-])c5S(=O)(=O)c5ccccc5)cc4)n3)c(OC)c2)CC1
Q = COc1cc(N2CCN(C)CC2)ccc1Nc1ncc(Cl)c(Oc2ccc(COc3no[n+]([O-])c3S(=O)(=O)c3ccccc3)cc2)n1
INPUT: I'd appreciate it if you could identify which of P and Q has the greater pIC50. Respond using the label that marks the chosen record.
OUTPUT: Q
(Q: 6.85, P: 6.39)

###

Target: Epidermal growth factor receptor (Homo sapiens, UniProt P00533, L858R)
Assay: Inhibition of EGFR L858R mutant (unknown origin) using Tyr 4 peptide as substrate after 1.5 hrs by FRET based Z'-lyte assay
measured_property: IC50 (nM)

1 = COc1cc(N2CCN(C)CC2)ccc1Nc1ncc(Cl)c(Oc2cccc(COc3no[n+]([O-])c3S(=O)(=O)c3ccccc3)c2)n1
2 = C=CC(=O)N1CCN(c2ccc(Nc3ncc(Cl)c(Oc4cccc(COc5no[n+]([O-])c5S(=O)(=O)c5ccccc5)c4)n3)c(OC)c2)CC1
INPUT: I'd appreciate it if you could identify which of 1 and 2 has the greater IC50. Respond using the label that marks the chosen record.
OUTPUT: 2

###

Biological target: Epidermal growth factor receptor (Homo sapiens)
Experiment: Inhibition of wild type EGFR (unknown origin) using Tyr 4 peptide as substrate after 1.5 hrs by FRET based Z'-lyte assay
pIC50: −log10 of the molar value.
measured_property: pIC50

1 = COc1cc(N2CCC(O)CC2)ccc1Nc1ncc(Cl)c(Oc2cccc(COc3no[n+]([O-])c3S(=O)(=O)c3ccccc3)c2)n1
2 = COc1cc(N2CCN(C)CC2)ccc1Nc1ncc(Cl)c(Oc2ccc(CCCOc3no[n+]([O-])c3S(=O)(=O)c3ccccc3)cc2)n1
INPUT: I'd appreciate it if you could identify which of 1 and 2 has the greater pIC50. Respond using the label that marks the chosen record.
OUTPUT: 1
